# Tested on: 945468-187-T-J2-PDC spheroids viability
# protocol description: Anticancer human tumor 945468-187-T-J2-PDC patient-derived rectal carcinoma cell line growth inhibition [PI3K]
# cond: curve of first compound; second compound 0.01 µM; spheroids with HUVEC and MSC
pIC50: −log10 of the molar value.
pIC50 values for the molecules below.
reported metric: pIC50

{"molecule": "CC(C)NCC(C(=O)N1CCN(c2ncnc3c2C(C)CC3O)CC1)c1ccc(Cl)cc1 (stereo not drawn) + COc1c(OCCCN2CCOCC2)ccc2c3n(c(=NC(=O)c4cnc(N)nc4)nc12)CCN3", "recorded value": "< 5.00"}
{"molecule": "Cn1ncnc1[C@H]1c2n[nH]c(=O)c3cc(F)cc(c23)N[C@@H]1c1ccc(F)cc1 + COc1c(OCCCN2CCOCC2)ccc2c3n(c(=NC(=O)c4cnc(N)nc4)nc12)CCN3", "recorded value": "< 7.00"}
{"molecule": "Cn1ncc(Cl)c1-c1cc(C(=O)NC(CN)Cc2cccc(F)c2)sc1Cl (stereo not drawn) + COc1c(OCCCN2CCOCC2)ccc2c3n(c(=NC(=O)c4cnc(N)nc4)nc12)CCN3", "recorded value": "< 5.00"}

----------
# Test system: 945468-187-T-J2-PDC spheroids viability
# protocol description: Anticancer human tumor 945468-187-T-J2-PDC cell line growth inhibition [PI3K];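 further: spheroids exposed to compounds for seven days before reading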
# cond: second compound 0.0316 µM; first compound 10 µM; stronger effect = lower value; spheroids with HUVEC and MSC

{"molecule": "C=CC(=O)N1CCN(c2nc(=O)n(-c3c(C)ccnc3C(C)C)c3nc(-c4c(O)cccc4F)c(F)cc23)C(C)C1 (stereo unspecified) + COc1c(OCCCN2CCOCC2)ccc2c3n(c(=NC(=O)c4cnc(N)nc4)nc12)CCN3", "system name": "945468-187-T-J2-PDC spheroids viability", "unit info": "%", "viability, T/C": 97.3}
{"molecule": "CC(Cn1ccc(-c2ccc(C#N)c(Cl)c2)n1)NC(=O)c1cc(C(C)O)[nH]n1 (stereo unspecified) + CC(Nc1ccc2c(c1)OCCn1cc(N3C(=O)OCC3C(F)F)nc1-2)C(N)=O", "system name": "945468-187-T-J2-PDC spheroids viability", "unit info": "%", "viability, T/C": 103}
{"molecule": "CC(C)NCC(C(=O)N1CCN(c2ncnc3c2C(C)CC3O)CC1)c1ccc(Cl)cc1 (stereo unspecified) + Cc1nc(NC(=O)N2CCCC2C(N)=O)sc1-c1ccnc(C(C)(C)C(F)(F)F)c1", "system name": "945468-187-T-J2-PDC spheroids viability", "unit info": "%", "viability, T/C": 96.8}
{"molecule": "C#Cc1c(F)ccc2cc(O)cc(-c3ncc4c(N5CC6CCC(C5)N6)nc(OCC56CCCN5CC(F)C6)nc4c3F)c12 (stereo unspecified) + COc1c(OCCCN2CCOCC2)ccc2c3n(c(=NC(=O)c4cnc(N)nc4)nc12)CCN3", "system name": "945468-187-T-J2-PDC spheroids viability", "unit info": "%", "viability, T/C": 104}
{"molecule": "C#Cc1c(F)ccc2cc(O)cc(-c3ncc4c(N5CC6CCC(C5)N6)nc(OCC56CCCN5CC(F)C6)nc4c3F)c12 (stereo unspecified) + Cc1nc(NC(=O)N2CCCC2C(N)=O)sc1-c1ccnc(C(C)(C)C(F)(F)F)c1", "system name": "945468-187-T-J2-PDC spheroids viability", "unit info": "%", "viability, T/C": 107}
{"molecule": "Cn1ncc(Cl)c1-c1cc(C(=O)NC(CN)Cc2cccc(F)c2)sc1Cl (stereo unspecified) + CC(Nc1ncnc2nc[nH]c12)c1cc2cccc(Cl)c2c(=O)n1-c1ccccc1", "system name": "945468-187-T-J2-PDC spheroids viability", "unit info": "%", "viability, T/C": 59.2}
{"molecule": "CC(C)NCC(C(=O)N1CCN(c2ncnc3c2C(C)CC3O)CC1)c1ccc(Cl)cc1 (stereo unspecified) + CC(Nc1ncnc2nc[nH]c12)c1cc2cccc(Cl)c2c(=O)n1-c1ccccc1", "system name": "945468-187-T-J2-PDC spheroids viability", "unit info": "%", "viability, T/C": 77.2}
{"molecule": "C[C@@H](NC(=O)c1ncnc(N)c1Cl)c1ncc(C(=O)Nc2cc(C(F)(F)F)c(Cl)cn2)s1 + CC(Nc1ncnc2nc[nH]c12)c1cc2cccc(Cl)c2c(=O)n1-c1ccccc1", "system name": "945468-187-T-J2-PDC spheroids viability", "unit info": "%", "viability, T/C": 86.2}
{"molecule": "Cn1ncc(Cl)c1-c1cc(C(=O)NC(CN)Cc2cccc(F)c2)sc1Cl (stereo unspecified) + COc1c(OCCCN2CCOCC2)ccc2c3n(c(=NC(=O)c4cnc(N)nc4)nc12)CCN3", "system name": "945468-187-T-J2-PDC spheroids viability", "unit info": "%", "viability, T/C": 41.4}
{"molecule": "CC(C)NCC(C(=O)N1CCN(c2ncnc3c2C(C)CC3O)CC1)c1ccc(Cl)cc1 (stereo unspecified) + COc1c(OCCCN2CCOCC2)ccc2c3n(c(=NC(=O)c4cnc(N)nc4)nc12)CCN3", "system name": "945468-187-T-J2-PDC spheroids viability", "unit info": "%", "viability, T/C": 101}
{"molecule": "Cn1nccc1Nc1nccc(-c2ccn(C(CO)c3ccc(Cl)c(F)c3)c(=O)c2)n1 (stereo unspecified) + COc1c(OCCCN2CCOCC2)ccc2c3n(c(=NC(=O)c4cnc(N)nc4)nc12)CCN3", "system name": "945468-187-T-J2-PDC spheroids viability", "unit info": "%", "viability, T/C": 89.2}

Reference source: PubChem BioAssay AID1963972
